tgt: aurora B (Homo sapiens, UniProt Q96GD4)
Sequence (Q96GD4 whole entry): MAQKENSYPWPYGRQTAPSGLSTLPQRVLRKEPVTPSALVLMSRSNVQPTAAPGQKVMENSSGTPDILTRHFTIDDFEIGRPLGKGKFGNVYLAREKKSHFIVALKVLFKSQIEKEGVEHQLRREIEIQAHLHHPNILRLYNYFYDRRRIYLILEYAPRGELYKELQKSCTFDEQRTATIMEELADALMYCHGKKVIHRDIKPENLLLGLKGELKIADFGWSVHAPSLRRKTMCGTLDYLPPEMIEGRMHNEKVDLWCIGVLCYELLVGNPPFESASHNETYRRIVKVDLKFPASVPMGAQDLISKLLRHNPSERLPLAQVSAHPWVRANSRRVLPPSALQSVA
procedure details: radioisotope-based P81 filter-binding assay, aurora B kinase
Format: biochemical
measurement setup: averaged from two independent dose-response curves; read-out: Enzyme assay IC50 Aur B
endpoint name: IC50 (nM)

Field: example entries. Status: answers known.
CCN(CC)CCNC(=O)c1c(C)[nH]c(/C=C2\C(=O)Nc3cc(NC(=O)NC(=O)c4ccc(OC)cc4F)ccc32)c1C [D69]: 7.6
COc1ccc(C(=O)NC(=O)Nc2ccc3c(c2)NC(=O)/C3=C\c2[nH]c(C)c(CCC(=O)N3CCN(C)CC3)c2C)c(F)c1 [D65]: 18.4
O=C1Nc2cc(NC(=O)N3CCN(c4ccccc4)C3=O)ccc2/C1=C/c1ccc[nH]1 [D83]: 17.3
O=C1Nc2cc(NC(=O)N3CCN(C4CC4)C3=O)c(F)cc2/C1=C/c1ccc[nH]1 [D82]: 10.7
Cc1[nH]c(/C=C2\C(=O)Nc3cc(NC(=O)NC(=O)c4ccc([N+](=O)[O-])cc4)ccc32)c(C)c1C(=O)O [D38]: 1.2
O=C(CC(=O)Nc1ccc2c(c1)NC(=O)/C2=C\c1ccc[nH]1)Nc1ccc(F)cc1 [D75]: 25
O=C1Nc2cc(NC(=O)c3cccn(-c4ccccc4F)c3=O)ccc2/C1=C/c1ccc[nH]1 [D115]: 138
O=C1Nc2cc(NC(=O)c3c[nH]cc(-c4cc(F)cc(F)c4)c3=O)ccc2/C1=C/c1ccc[nH]1 [D136]: 123

I. Cc1[nH]c(/C=C2\C(=O)Nc3cc(NC(=O)c4cccn(-c5ccc(F)cc5)c4=O)ccc32)c(C)c1CCC(=O)O [D122]
II. COc1ccc(C(=O)NC(=O)Nc2ccc3c(c2)NC(=O)/C3=C\c2[nH]c(C)c(CCC(=O)O)c2C)c(F)c1 [D58]
Of I and II , whose reported IC50 is the larger number? When you have decided, please share the label of that item.
I
(I: 5.5 nM, II: 1.3 nM)

I. Cc1[nH]c(/C=C2\C(=O)Nc3cc(NC(=O)NC(=O)c4ccc(F)cc4F)ccc32)c(C)c1CCC(=O)O [D56]
II. Cc1cc(C)c(/C=C2\C(=O)Nc3cc(NC(=O)c4c[nH]cc(-c5ccc(F)cc5)c4=O)ccc32)[nH]1 [D140]
Sorting by IC50 in descending order, would I or II appear first? Select an item and report its label.
II

###

tgt: aurora B (Homo sapiens, UniProt Q96GD4)
procedure details: radioisotope-based P81 filter-binding assay, aurora B kinase
Format: biochemical
measurement setup: averaged from two independent dose-response curves; read-out: Enzyme assay IC50 Aur B
pIC50: −log10 of the molar value.
endpoint name: pIC50

Cc1[nH]c(/C=C2\C(=O)Nc3cc(NC(=O)NC(=O)c4ccccc4F)ccc32)c(C)c1C(=O)O [D53]: 8.43
Cn1cccc(C(=O)Nc2ccc3c(c2)NC(=O)/C3=C\c2ccc[nH]2)c1=O [D116]: 6.99

a. O=C1Nc2cc(NC(=O)N3CCN(c4ccc(F)cc4)C3=O)ccc2/C1=C/c1ccc[nH]1 [D89]
b. COc1cc(OC)cc(C(=O)NC(=O)Nc2ccc3c(c2)NC(=O)/C3=C\c2[nH]c(C)c(C(=O)O)c2C)c1 [D42]
c. Cc1[nH]c(/C=C2\C(=O)Nc3cc(NC(=O)c4c[nH]cc(-c5ccc(F)cc5)c4=O)ccc32)c(C)c1CC(=O)N1CCN(C)CC1 [D150]
d. Cc1[nH]c(/C=C2\C(=O)Nc3cc(NC(=O)N4CCN(C5CC5)C4=O)ccc32)c(C)c1C(=O)O [D96]
Rank items: key pIC50, increasing. Would you mind listing the labels in the order requested?
c, a, d, b

Cited source: patent US8946282B2
